biological target: T1, monomeric human PRLR (hPRLR.mmh; SEQ ID NO:401) (Homo sapiens, UniProt P16471); assay: Surface plasmon resonance (Biacore T200), antibody-capture format; format: binding; conditions: 37° C., analyte hPRLR.mmh
T1 construct: soluble monomeric (hPRLR.mmh); mmh (myc-myc-hexahistidine) (C)
T1 sequence (P16471 with tags, fused parts or gaps): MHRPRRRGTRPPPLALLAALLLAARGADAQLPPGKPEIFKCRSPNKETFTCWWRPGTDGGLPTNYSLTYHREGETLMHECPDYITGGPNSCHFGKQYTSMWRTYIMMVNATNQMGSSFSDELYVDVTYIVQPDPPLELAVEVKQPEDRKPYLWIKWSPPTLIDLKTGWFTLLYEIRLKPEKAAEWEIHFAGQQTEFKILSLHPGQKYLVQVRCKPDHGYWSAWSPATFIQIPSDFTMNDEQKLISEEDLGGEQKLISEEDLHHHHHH
readout.name: ka (M/s)
Respond with the bare value in M/s.

Query: Give ka for the following molecule: H1H6793P: fully human anti-PRLR antibody, human IgG1 Fc; HCVR/LCVR SEQ ID NOs 146/154 (antibody, V domains shown) VH: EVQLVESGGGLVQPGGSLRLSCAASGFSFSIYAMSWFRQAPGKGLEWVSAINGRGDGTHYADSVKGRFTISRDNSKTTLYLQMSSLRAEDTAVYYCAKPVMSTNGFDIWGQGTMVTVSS VL: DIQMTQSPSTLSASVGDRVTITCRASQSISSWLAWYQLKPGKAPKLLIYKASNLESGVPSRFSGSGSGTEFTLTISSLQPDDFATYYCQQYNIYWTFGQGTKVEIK
Result: 339000
